# system_under_test: WT DaCld (Dechloromonas aromatica, UniProt Q47CX0)
# Sequence (Q47CX0 32-282): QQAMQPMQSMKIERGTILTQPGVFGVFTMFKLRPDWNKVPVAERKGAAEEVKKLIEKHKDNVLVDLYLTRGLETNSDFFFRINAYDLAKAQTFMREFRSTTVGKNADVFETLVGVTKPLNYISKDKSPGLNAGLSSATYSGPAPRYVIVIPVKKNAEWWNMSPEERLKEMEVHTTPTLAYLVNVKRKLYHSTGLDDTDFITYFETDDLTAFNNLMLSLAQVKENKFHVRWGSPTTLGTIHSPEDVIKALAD
# experimental_protocol: Equilibrium binding of ligands, spectrophotometric titration, WT DaCld
attribute_measured: Kd (µM)
Write down the numeric answer in µM and omit the unit.

The measured Kd that `c1c[nH]cn1` showed for WT DaCld (Dechloromonas aromatica, UniProt Q47CX0) is 9.6

* * *

# system_under_test: DaCld(R183K) (Dechloromonas aromatica, UniProt Q47CX0, R217K)
# Sequence (Q47CX0 35-282 R217K): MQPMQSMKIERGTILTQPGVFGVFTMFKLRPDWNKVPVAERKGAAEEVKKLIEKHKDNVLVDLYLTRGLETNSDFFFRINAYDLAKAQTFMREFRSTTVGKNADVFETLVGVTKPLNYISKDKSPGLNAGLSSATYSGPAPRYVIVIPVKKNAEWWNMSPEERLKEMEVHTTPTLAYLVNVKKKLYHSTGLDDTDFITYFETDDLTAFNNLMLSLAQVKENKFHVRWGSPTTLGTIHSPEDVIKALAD
# experimental_protocol: biochemical
attribute_measured: pKd
Please keep in mind that pKd is minus log10 of the molar concentration; only the number is needed.

Memo: `c1c[nH]cn1` , reported pKd: 4.74
